The values you see were collected from a melting point compilation (Tetko et al.; mined from patent text by program, amines drawn as free bases though some values may be those of a salt).

measure-name: melting point

molecule: CCCCn1c(=O)c(N)c(C)n(CCC(C)C)c1=O
recorded-result: 68 to 70 °C

Tell me the measured melting point of O=C(O[C@@H]1[C@@H](Br)C[C@]2(O)C[C@H]1OC2=O)c1ccccc1 , please. 142 to 143 °C

What about O=Cc1cc(N2C(=O)C3=C(CCCC3)C2=O)ccc1Cl ? 140 to 141 °C

What about N#Cc1cc(C2=NOC(c3cc(Cl)cc(Cl)c3)(C(F)(F)F)C2)ccc1-n1cc(Cl)cn1 (stereo not given) ? 190 to 191 °C

What about CCCc1c(C(=O)NCc2ccc3c(Br)c(OCc4nnn[nH]4)ccc3c2)cnn1-c1ccccc1 ? 219 to 220 °C

What about COCCCCNC(=O)C(c1ccccc1)c1ccccc1 ? 75.5 to 76.8 °C

What about N#CC(c1ccc(Cl)cc1)c1c(Cl)cc(NN=Cc2ccccc2)cc1Cl (stereo not given) ? 162 to 163 °C

What about CN(C)CCc1cccc(OCCNc2nc(N)nn2C)c1 ? 72 °C

What about CCCCc1c(Cl)ncnc1Cl ? 62 to 63 °C

What about OCCc1nccn1Cc1coc(-c2ccc(OCc3coc(/C=C/c4ccc(Cl)cc4F)n3)cc2)n1 ? 170 to 172 °C
